assay: physchem; details: phosphate buffer solution, pH 7.4
Description: Partition coefficient, log P in phosphate buffer solution at pH 7.4
Give measured logD for each item. Keep answers brief.
Answer with a bare number; do not write a unit.

[in] Given the entry CCN(CC)CCNC(=O)c1cccc2c(=O)c3cc(I)ccc3[nH]c12.Cl , report its measured logD.
[out] 0.27

[in] Please answer likewise for CCN(CC)CCNC(=O)c1ccc(I)cc1.Cl
[out] 1.34

Taken from ChEMBL document CHEMBL1155960.
